Published pIC50 for Renin (Homo sapiens), assembled from different documents, is shown next.
pIC50: −log10 of the molar value.

>  <compound>
COc1ccccc1COCCCOc1ccc(N2C(=O)CNC[C@@H]2COCc2ccccc2C(F)(F)F)cc1

>  <experimentalTarget>
Renin (Homo sapiens)
Sequence (P00797 whole entry): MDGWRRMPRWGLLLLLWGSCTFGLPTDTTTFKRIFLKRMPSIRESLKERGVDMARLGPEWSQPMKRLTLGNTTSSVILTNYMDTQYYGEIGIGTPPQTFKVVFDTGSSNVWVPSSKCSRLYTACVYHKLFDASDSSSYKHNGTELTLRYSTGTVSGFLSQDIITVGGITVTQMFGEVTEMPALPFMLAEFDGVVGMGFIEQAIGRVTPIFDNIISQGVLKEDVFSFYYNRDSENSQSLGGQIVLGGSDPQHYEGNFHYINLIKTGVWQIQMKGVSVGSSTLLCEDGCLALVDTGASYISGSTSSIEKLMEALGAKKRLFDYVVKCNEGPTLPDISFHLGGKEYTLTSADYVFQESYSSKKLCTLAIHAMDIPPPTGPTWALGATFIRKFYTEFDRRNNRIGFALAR

>  <relationSign>
=

>  <pIC50>
6.57

$$$$
>  <compound>
CCCCNC(=O)[C@H](C)C[C@H](O)[C@H](CC1CCCCC1)NC(=O)[C@H](CCC)OP(=O)(O)CCCc1ccccc1

>  <experimentalTarget>
Renin (Homo sapiens)

>  <relationSign>
=

>  <pIC50>
8.38

$$$$
>  <compound>
COCCCOc1cccc(N2CCN(CC(N)C(O)CC(C(=O)NCC(C)(C)C(N)=O)C(C)C)CC2=O)c1 (racemic)

>  <experimentalTarget>
Renin (Homo sapiens)

>  <relationSign>
=

>  <pIC50>
6.40

$$$$
>  <compound>
C=C(C)[C@@H]1CC[C@]2(C(=O)O)CC[C@]3(C)[C@@H](CC[C@@H]4[C@@](C)(CC(=O)O)[C@H](C(C)(C)C(=O)O)CC[C@]43C)[C@H]12

>  <experimentalTarget>
Renin (Homo sapiens)

>  <relationSign>
<

>  <pIC50>
2.70

$$$$
>  <compound>
COc1ccccc1COCCCOc1ccc(N2C(=O)CNC[C@@H]2COc2ccc3c(c2)N(CCC(=O)O)CCC3)cc1

>  <experimentalTarget>
Renin (Homo sapiens)

>  <relationSign>
=

>  <pIC50>
6.35

$$$$
>  <compound>
COCCOCCOCCOC(=O)N[C@@H](Cc1ccccc1)C(=O)N[C@H]1COC(=O)CCC[C@H](CN2CCOCC2)OC(=O)[C@H](O)[C@H](CC2CCCCC2)NC1=O

>  <experimentalTarget>
Renin (Homo sapiens)

>  <relationSign>
=

>  <pIC50>
9.30

$$$$
>  <compound>
COc1ccccc1COCCCOc1ccc(N2C(=O)CNC[C@@H]2COc2ccc3c(c2)N(CC(=O)O)C(=O)CO3)cc1

>  <experimentalTarget>
Renin (Homo sapiens)

>  <relationSign>
=

>  <pIC50>
6.44

$$$$
